experiment: Half life in rhesus; assay type: ADME, organism-based, Macaca mulatta; details: rhesus monkey, in vivo

[
  {
    "compound": "CC(C)CCn1cnc(C(Cc2ccc(N)nc2)C(=O)O)c1 (stereo in doubt; 10j(-))",
    "half-life": "48 min"
  }
]

====

test: Half life in dog; format: ADME, organism-based, Canis lupus familiaris; details: in vivo

[
  {
    "compound": "CC(C)CCn1cnc(C(Cc2ccc(N)nc2)C(=O)O)c1 (stereo in doubt; 10j(-))",
    "half-life / min": 36
  }
]

====

assay: Volume of distribution in rhesus; format: ADME, organism-based, Macaca mulatta; conditions: rhesus monkey, in vivo; read-out: Vdss

[
  {
    "compound": "CC(C)CCn1cnc(C(Cc2ccc(N)nc2)C(=O)O)c1 (stereo in doubt; 10j(-))",
    "Vd [L/kg]": 0.26
  }
]

====

assay: Volume of distribution in rat; format: ADME, organism-based; conditions: in vivo, read-out: Vdss

[
  {
    "molecule": "CC(C)CCn1cnc(C(Cc2ccc(N)nc2)C(=O)O)c1 (stereo in doubt; 10j(-))",
    "Vd": "1.36 L/kg"
  }
]

====

assay: Bioavailability in rhesus; format: ADME, organism-based, Macaca mulatta; settings: rhesus monkey, in vivo

[
  {
    "compound": "CC(C)CCn1cnc(C(Cc2ccc(N)nc2)C(=O)O)c1 (stereo in doubt; 10j(-))",
    "uom": "%",
    "bioavailability": 12
  }
]

====

assay: Clearance in rat; format: ADME, organism-based; details: in vivo
recorded metric: clearance (mL/min/kg)

[
  {
    "compound": "CC(C)CCn1cnc(C(Cc2ccc(N)nc2)C(=O)O)c1 (stereo in doubt; 10j(-))",
    "measured result": 32
  }
]

====

experiment: Half life in rat; type: ADME, organism-based; conditions: in vivo

[
  {
    "compound": "CC(C)CCn1cnc(C(Cc2ccc(N)nc2)C(=O)O)c1 (stereo in doubt; 10j(-))",
    "half-life [h]": 1.1
  }
]

====

test: Bioavailability in rat; format: ADME, organism-based; settings: in vivo
recorded metric: bioavailability (%)

[
  {
    "molecule": "CC(C)CCn1cnc(C(Cc2ccc(N)nc2)C(=O)O)c1 (stereo in doubt; 10j(-))",
    "measured result": 47
  }
]

All values here come from ChEMBL document CHEMBL1145913.
